# Tested on: Pseudomonas aeruginosa ATCC 27853
# Type: cell-based
# run conditions: ATCC 27853
Bridge positions count the residues as written; N and C are the ends. Square brackets hold non-standard residues; d marks the D form. Peptide text beside a SMILES is read from it. * marks the point of attachment. Heptanoyl(6-Me) = CC(C)CCCCC(=O)*; Sulfomethyl = O=S(=O)(O)C*; X1 = CC[C@H](C)CCCCC(=O)*; dDab = NCC[C@@H](N)C(=O)O; Octanoyl = CCCCCCCC(=O)*; Orn = NCCC[C@H](N)C(=O)O; Dab = NCC[C@H](N)C(=O)O; Dap = NC[C@H](N)C(=O)O
Items are presented alongside their recorded MIC.
attribute measured: MIC (µg/mL)

[[record]]
compound = "CC[C@H](C)CCCCC(=O)N[C@@H](CCN)C(=O)N[C@H](C(=O)N[C@H](CO)C(=O)N[C@H]1CCNC(=O)[C@H]([C@@H](C)O)NC(=O)[C@H](CCN)NC(=O)[C@H](CCCN)NC(=O)[C@H]([C@@H](C)O)NC(=O)[C@@H](Cc2ccccc2)NC(=O)[C@H](CCN)NC1=O)[C@@H](C)O [Compound 76] (X1-[Dab]T[dS][Dab][Dab][dF]T[Orn][Dab]T; lactam 4-C)"
qualifier = ">"
value_measured = 64

[[record]]
compound = "CC(C)CCCCC(=O)N[C@@H](CCN)C(=O)N[C@H](C(=O)N[C@H](CO)C(=O)N[C@H]1CCNC(=O)[C@H]([C@@H](C)O)NC(=O)[C@H](CCN)NC(=O)[C@H](CCN)NC(=O)[C@H]([C@@H](C)OCS(=O)(=O)O)NC(=O)[C@@H](Cc2ccccc2)NC(=O)[C@H](CCN)NC1=O)[C@@H](C)O [Compound 105] ({Heptanoyl(6-Me)}-[Dab]T[dS][Dab][Dab][dF]T(Sulfomethyl)[Dab][Dab]T; lactam 4-C)"
qualifier = "="
value_measured = 0.25

[[record]]
compound = "CC[C@H](C)CCCCC(=O)N[C@@H](CCN)C(=O)N[C@H](C(=O)N[C@H](CO)C(=O)N[C@H]1CCNC(=O)[C@H]([C@@H](C)O)NC(=O)[C@H](CCN)NC(=O)[C@H](CN)NC(=O)[C@H]([C@@H](C)O)NC(=O)[C@@H](Cc2ccccc2)NC(=O)[C@H](CCN)NC1=O)[C@@H](C)O [Compound 71] (X1-[Dab]T[dS][Dab][Dab][dF]T[Dap][Dab]T; lactam 4-C)"
qualifier = ">"
value_measured = 64

[[record]]
compound = "CC(C)CCCCC(=O)N[C@@H](CCN)C(=O)N[C@H](C(=O)N[C@@H](CCN)C(=O)N[C@H]1CCNC(=O)[C@H]([C@@H](C)O)NC(=O)[C@H](CCN)NC(=O)[C@H](CCN)NC(=O)[C@H]([C@@H](C)O)NC(=O)[C@@H](Cc2ccccc2)NC(=O)[C@H](CCN)NC1=O)[C@@H](C)O [Compound 17] ({Heptanoyl(6-Me)}-[Dab]T[Dab][Dab][Dab][dF]T[Dab][Dab]T; lactam 4-C)"
qualifier = "="
value_measured = 0.5

[[record]]
compound = "CCCCCCCC(=O)N[C@@H](CN)C(=O)N[C@H](C(=O)N[C@H](CCN)C(=O)N[C@H]1CCNC(=O)[C@H]([C@@H](C)O)NC(=O)[C@H](CCN)NC(=O)[C@H](CCN)NC(=O)[C@H](CC(C)C)NC(=O)[C@@H](CC(C)C)NC(=O)[C@H](CCN)NC1=O)[C@@H](C)O [Compound 98] (Octanoyl-[Dap]T[dDab][Dab][Dab][dL]L[Dab][Dab]T; lactam 4-C)"
qualifier = "="
value_measured = 0.5


Taken from patent EP4725957A1.
